Across several publications, the following Ki results were reported for Carbonic anhydrase 1 (Homo sapiens, UniProt P00915).

NS(=O)(=O)c1ccc(NN2C(=O)/C(=C3/C(=O)Nc4c(Br)cccc43)SC2=Nc2ccccc2)cc1    7.69 µM

Q: Please tell me: Ki of COc1cc(/C=C/CN2CCN(CCCCOc3ccc4c(C)cc(=O)oc4c3)CC2)cc(OC)c1OC , system Carbonic anhydrase 1 (Homo sapiens, UniProt P00915)?
A: > 10 µM

Q: Find the measured Ki: item COc1cc(CN2CCN(CCCCOc3ccc4c(C)cc(=O)oc4c3)CC2)cc(OC)c1OC , target or system Carbonic anhydrase 1 (Homo sapiens, UniProt P00915).
A: > 10 µM

Q: I'm curious: which Ki was measured for COc1ccc(C(CCCN2CCN(CCOc3ccc4ccc(=O)oc4c3)CC2)c2ccc(OC)cc2)cc1 tested on Carbonic anhydrase 1 (Homo sapiens, UniProt P00915)?
A: > 10 µM

Q: # get_value(readout= Ki, system= Carbonic anhydrase 1 (Homo sapiens, UniProt P00915)) for COc1cc(CN2CCN(CCCOc3ccc4ccc(=O)oc4c3)CC2)cc(OC)c1OC
A: > 10 µM

Q: Provide the documented Ki with Carbonic anhydrase 1 (Homo sapiens, UniProt P00915) as the system for COc1cc(CN2CCN(CCOc3ccc4c(C)cc(=O)oc4c3)CC2)cc(OC)c1OC
A: > 10 µM

Q: GET /values?readout=Ki&system=Carbonic anhydrase 1 (Homo sapiens, UniProt P00915)&item= COc1cc(/C=C/CN2CCN(CCCOc3ccc4ccc(=O)oc4c3)CC2)cc(OC)c1OC
A: > 10 µM

Q: Missing value: Ki, Carbonic anhydrase 1 (Homo sapiens, UniProt P00915), entry COc1cc(CN2CCN(CCOc3ccc4ccc(=O)oc4c3)CC2)cc(OC)c1OC . Fill in?
A: > 10 µM

Q: Recall the recorded Ki for COc1cc(CN2CCN(CCOc3ccc4oc(=O)cc(C)c4c3)CC2)cc(OC)c1OC with Carbonic anhydrase 1 (Homo sapiens, UniProt P00915) and state it.
A: > 10 µM

Q: So what Ki did NS(=O)(=O)c1ccccc1NC(=O)c1nn(-c2ccccc2)c(-c2ccccc2)c1C(=O)c1ccccc1 get with Carbonic anhydrase 1 (Homo sapiens, UniProt P00915)?
A: 3.37 µM

Q: Value wanted: Ki (Carbonic anhydrase 1 (Homo sapiens, UniProt P00915)) of entry NS(=O)(=O)c1ccc(NN2C(=O)/C(=C3/C(=O)Nc4ccc(F)cc43)SC2=Nc2ccccc2)cc1
A: 5.88 µM

Q: // lookup Ki | system=Carbonic anhydrase 1 (Homo sapiens, UniProt P00915) | key= Cc1ccc2c(c1)/C(=C1/SC(=Nc3ccccc3)N(Nc3ccc(S(N)(=O)=O)cc3)C1=O)C(=O)N2
A: > 10 µM

Q: Look up Ki with Carbonic anhydrase 1 (Homo sapiens, UniProt P00915) for this compound: COc1cc(/C=C/CN2CCN(CCCCOc3ccc4ccc(=O)oc4c3)CC2)cc(OC)c1OC
A: > 10 µM

Q: Value wanted: Ki (Carbonic anhydrase 1 (Homo sapiens, UniProt P00915)) of entry COc1ccc(C(CCCN2CCN(CCCOc3ccc4ccc(=O)oc4c3)CC2)c2ccc(OC)cc2)cc1
A: > 10 µM

Q: So what Ki did NS(=O)(=O)c1ccc(NN2C(=O)/C(=C3/C(=O)Nc4ccc([N+](=O)[O-])cc43)SC2=Nc2ccccc2)cc1 get with Carbonic anhydrase 1 (Homo sapiens, UniProt P00915)?
A: 6.03 µM
